System: Streptococcus pyogenes
Experiment summary: In vivo activity against experimentally-induced infection in mice (ED50)
Details: mice infected with Streptococcus pyogenes; subcutaneous doses 1 and 4 hours postinfection
Reported ED50 Value values are given for each entry in this list.
Property measured: ED50 Value (mg/kg × 2)

molecule=CN[C@H](CC(C)C)C(=O)N[C@H]1C(=O)N[C@@H](CC(N)=O)C(=O)N[C@H]2C(=O)N[C@H]3C(=O)N[C@H](C(=O)N[C@H](C(=O)O)c4cc(O)cc(O)c4-c4cc3ccc4O)[C@H](O[C@H]3C[C@](C)(N)[C@@H](O)[C@H](C)O3)c3ccc(cc3)Oc3cc2cc(c3O)Oc2ccc(cc2Cl)[C@H]1O property_measured="ED50 Value" recorded_value=3.54
molecule="CNC(CC(C)C)C(=O)NC1C(=O)NC(CC(N)=O)C(=O)NC2C(=O)NC3C(=O)NC(C(=O)NC(C(=O)O)c4cc(O)cc(O)c4-c4cc3ccc4O)C(OC3CC(C)(N)C(O)C(C)O3)c3ccc(cc3)Oc3cc2cc(c3OC2OC(CO)C(O)C(O)C2O)Oc2ccc(cc2Cl)C1O (stereo not drawn)" property_measured="ED50 Value" recorded_value=3.54
molecule=CN[C@H](CC(C)C)C(=O)N[C@H]1C(=O)N[C@@H](CC(N)=O)C(=O)N[C@H]2C(=O)N[C@H]3C(=O)N[C@H](C(=O)N[C@H](C(=O)O)c4cc(O)cc(O)c4-c4cc3ccc4O)[C@H](O[C@H]3C[C@](C)(N)[C@@H](O)[C@H](C)O3)c3ccc(c(Cl)c3)Oc3cc2cc(c3O[C@@H]2O[C@H](CO)[C@@H](O)[C@H](O)[C@H]2O)Oc2ccc(cc2Cl)[C@H]1O property_measured="ED50 Value" recorded_value=0.70

###

System: Streptococcus pyogenes
Experiment summary: In vivo activity against experimentally-induced infection in mice (ED50)
Details: mice infected with Streptococcus pyogenes; subcutaneous doses 1 and 4 hours postinfection
Property measured: ED50 Value (mg/kg × 2)

molecule="CN[C@H](CC(C)C)C(=O)N[C@H]1C(=O)N[C@@H](CC(N)=O)C(=O)N[C@H]2C(=O)N[C@H]3C(=O)N[C@H](C(=O)N[C@H](C(=O)O)c4cc(O)cc(O)c4-c4cc3ccc4O)[C@H](O[C@H]3C[C@](C)(N)[C@@H](O)[C@H](C)O3)c3ccc(c(Cl)c3)Oc3cc2cc(c3O)Oc2ccc(cc2Cl)[C@H]1O [Compound 3b]" recorded_value=0.40

###

System: Haemophilus influenzae C.L.
Experiment summary: In vitro antibacterial activity, agar-dilution MIC
Type: cell-based
Details: ampicillin-sensitive strain, highest level tested 128 mcg/mL
# MIC per entry
Property measured: MIC (µg/mL)

compound=CN[C@H](CC(C)C)C(=O)N[C@H]1C(=O)N[C@@H](CC(N)=O)C(=O)N[C@H]2C(=O)N[C@H]3C(=O)N[C@H](C(=O)N[C@H](C(=O)O)c4cc(O)cc(O)c4-c4cc3ccc4O)[C@H](O[C@H]3C[C@](C)(N)[C@@H](O)[C@H](C)O3)c3ccc(c(Cl)c3)Oc3cc2cc(c3O)Oc2ccc(cc2Cl)[C@H]1O property_measured=MIC recorded_value=32
compound=CN[C@H](CC(C)C)C(=O)N[C@H]1C(=O)N[C@@H](CC(N)=O)C(=O)N[C@H]2C(=O)N[C@H]3C(=O)N[C@H](C(=O)N[C@H](C(=O)O)c4cc(O)cc(O)c4-c4cc3ccc4O)[C@H](O[C@H]3C[C@](C)(N)[C@@H](O)[C@H](C)O3)c3ccc(c(Cl)c3)Oc3cc2cc(c3O[C@@H]2O[C@H](CO)[C@@H](O)[C@H](O)[C@H]2O)Oc2ccc(cc2Cl)[C@H]1O property_measured=MIC recorded_value=64
